- systemUnderTest: doubly phosphorylated p38-alpha kinase (Homo sapiens)
- Sequence (Q16539 with tags, fused parts or gaps): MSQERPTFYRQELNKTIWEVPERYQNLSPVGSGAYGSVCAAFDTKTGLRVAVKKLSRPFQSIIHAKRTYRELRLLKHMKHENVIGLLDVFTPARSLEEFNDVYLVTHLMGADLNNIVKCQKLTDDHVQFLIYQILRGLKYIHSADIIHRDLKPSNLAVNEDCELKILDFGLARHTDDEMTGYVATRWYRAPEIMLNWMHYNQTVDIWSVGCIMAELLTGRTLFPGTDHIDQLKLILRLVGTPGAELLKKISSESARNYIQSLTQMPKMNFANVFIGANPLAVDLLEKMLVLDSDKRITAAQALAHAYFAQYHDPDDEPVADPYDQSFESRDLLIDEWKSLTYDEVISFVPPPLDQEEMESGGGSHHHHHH
pIC50: −log10 of the molar value.
Recorded pIC50, one value per entry.
measurementLabel: pIC50

Cc1ccc(NC(=O)Nc2cc(C(C)(C)C)nn2-c2ccc3c(c2)CCNC3)cc1Nc1ncccn1 [Example 94] | 7.72
CC(C)(C)c1cc(NC(=O)Nc2cccc3ccccc23)n(-c2cccc(C(C)(C)O)c2)n1 [Example 75] | 6.92
CC(C)(C)c1cc(NC(=O)Nc2cccc(Oc3cccnc3)c2)n(-c2cccc(CC(N)=O)c2)n1 [Example 93] | 7.41
NC(=O)Cc1cccc(-n2nc(-c3ccccc3)cc2NC(=O)Nc2cccc(Cl)c2Cl)c1 [Example 77] | 7.24
CC(C)(C)c1cc(NC(=O)Nc2cccc(Cl)c2Cl)n(-c2ccc(CC(=O)N3CCS(=O)(=O)CC3)cc2)n1 [Example 96] | 8.10
